Entry source: paper PMC8842248

- testedOn: PDE6D (phosphodiesterase 6 delta), wild type, polyhistidine tag removed (UniProt O43924 1-150)
- experimentNotes: FP; in the presence of 500 uM Compound-2
*: point of attachment. Farnesyl = CC(C)=CCC/C(C)=C/CC/C(C)=C/C*

# binder, Kd [µM]
records = [
    ("{FAM}-KKKKKKSKTKC(Farnesyl)-OMe [fluorescein-labeled KRAS HVR peptide, FAM-KKKKKKSKTKC(OMe)-Far]", 55.2),
]
